# Tested on: Human IL17RA protein (human, UniProt Q96F46 33-320)
# Assay remarks: MST
Ends that are not written are not given here.
Assay endpoint: pKd
Give bare numbers, as −log10 of the molar value.

**Query** Recall and state the measured pKd for ASPVIYHL-NH2 [AL-8(0)] .
**Result** 7.05
